Please provide measured GI50 for the entries that follow.
Tested on: KM12
Assay: NCI tumour cell line growth inhibition, 48 h
Activity calls are given as the source filed them. Cut-off read from the data, not from the text of the source: active = GI50 up to about 1.1 µM and inactive = higher.

Reference set (2 entries):
O=C(/C=C/c1ccccc1)CCC1C(=O)c2ccccc2C1=O = > 100 µM (inactive)
OC(c1cc(C23CC4CC(CC(C4)C2)C3)nc2c(Cl)cc(Cl)cc12)C1CCCCN1 (stereo not drawn) = 1.67 µM (inactive)

Lookup: # GI50 lookup, item CCN(CC)CCNc1ccc2ncn3c4cc(O)ccc4c(=O)c1c23
Found: 4.61 µM (inactive)

----------
Test system: OVCAR-8
Test: NCI tumour cell line growth inhibition, 48 h
Activity calls are given as the source filed them. Cut-off read from the data, not from the text of the source: active = GI50 up to about 1.1 µM and inactive = higher.
A correct response names exactly one class from true (1) (active), false (0) (inactive)

Please review the entries below; each comes with its answer.
CCOc1nc(-c2ccccc2)cc(-c2ccc(N3CCOCC3)cc2)c1C#N = false (0)
C/C(=N\Nc1nc2ccccc2n1C)c1cc2ccccc2cn1 = true (1)
N#CC1(Nc2ccc(-c3ccc(NC4(C#N)CCCC4)cc3)cc2)CCCC1 = false (0)
C#C[C@]1(O)CCC2C3CCc4cc(Oc5nc(F)nc(-n6c(C)nc7cc8ccccc8cc76)n5)ccc4C3CCC21C (stereo not given in full) = false (0)
CC1CC(=O)Nc2ccccc2N1C(=O)C1CC1 (stereo not given) = false (0)

Lookup: Hello, I am checking results. What call was entered for COc1ccc2cc(CN3CCC(C4CCNCC4)CC3)ccc2c1 ?
Found: false (0)

Lookup: Further, for COC(=O)C1(Cc2ccccc2)Cc2ccccc2C1 ?
Found: false (0)

Lookup: Further, for ClC1=NSSC1(Cl)Cl ?
Found: false (0)

Lookup: Further, for Cc1ccc(CC(Cc2ccccc2C)C(=O)O)c(C(=O)O)c1 (stereo not given) ?
Found: false (0)

Lookup: Further, for Cc1ccc2c(c1)SSSSS2 ?
Found: false (0)

----------
System: MOLT-4
Experiment: NCI tumour cell line growth inhibition, 48 h
Calls of active or inactive are those of the source. No stated cut-off is given here; in the data, active = GI50 up to about 1.1 µM and inactive = higher.
A correct response names exactly one class from true (active), false (inactive)

O=C(O)CCNS(=O)(=O)c1ccc(NC(=O)c2ccccc2)cc1 = false
Cc1ccc(NC(c2ccccc2)c2ccc3cccnc3c2O)cc1 (centres undefined) = false
O=C1c2ccccc2C(=O)c2c1ccc(C(=O)O)c2-c1ccc2ccccc2c1 = false
Cc1cccc2c(N)c3cccc(C(=O)NCCN4CCOCC4)c3nc12 = true
CC[C@]1(Cc2ccc(OC)c(OC)c2)[C@@H]2C[C@@H](C3OCCO3)ON2O[C@H](OC2CCCC2(c2ccccc2)c2ccccc2)[C@@H]1OC(C)=O (some centres undefined) = false

Lookup: Hello, I am checking results. What call was entered for COC(=O)[C@@H](NC(=O)c1ccc(CNC(=O)/C(C)=C/c2ccccc2)cc1)C(C)C ?
Found: false

Lookup: Further, for Cc1cc2cc3c(O)nc(O)nc3nc2cc1C ?
Found: false

Lookup: Further, for Cn1ccnc1C(c1nccn1C)C(C)(C)[N+](=O)[O-] ?
Found: false

Lookup: Further, for CC(C)(C)CC(C)(C)c1ccc(O)c(C[N+](C)(C)[O-])c1 ?
Found: false

----------
Test system: UACC-62
Assay: NCI tumour cell line growth inhibition, 48 h
Active and inactive are the calls of the source. No stated cut-off is given here; in the data, active = GI50 up to about 1.1 µM and inactive = higher.
Endpoint name: GI50

COc1ccc(N2C(=O)CC(c3c[nH]c4ccccc34)C2=O)cc1 (centres undefined) = > 100 µM (inactive)

Give me GI50 for each of these compounds, listed below.
1. Cn1cnc([N+](=O)[O-])c1Sc1n[nH]c(-c2ccc(Cl)cc2)n1
2. O=C(Oc1c(Cl)cc(C2(c3cc(Cl)c(OC(=O)c4ccccc4)c(Cl)c3)CCCCC2)cc1Cl)c1ccccc1
3. Cc1nc2nnnn2c2c1C(=O)Nc1ccccc1N2

Found:
1: 14.4 µM (inactive); 2: 10.5 µM (inactive); 3: > 100 µM (inactive)

----------
Tested on: TK-10
Experiment: NCI tumour cell line growth inhibition, 48 h
Active and inactive are the calls of the source. Rule as the data show it: active = GI50 up to about 1.1 µM and inactive = higher. Where a SMILES comes first, the peptide text is derived from it. The star is where a group is joined. Boc = CC(C)(C)OC(=O)*; OBn = c1ccc(CO*)cc1
Endpoint name: GI50

Reference set (5 entries):
CC(C)(C)/N=C\N(C=C(c1ccccc1)c1ccccc1)C1CCCCC1 = 78.3 µM (inactive)
Brc1ccc2c(c1)[C@H]1CCc3c([nH]c4ccccc34)[C@H]1N2 = 11.2 µM (inactive)
CCN(CC)C(=S)SC1CCOP(=O)(N(CCCl)CCCl)N1C (stereo not given) = > 71.1 µM (inactive)
CC#CC#C/C(=C/C=CC(=O)OC)SC = > 100 µM (inactive)
COC(=O)C1=NN2c3ccccc3C(=O)OCCC2(C)C1 (stereo not given) = > 100 µM (inactive)

Give me GI50 for each of these compounds, listed below.
1. Cc1csc(NC23CC4CC(CC(C4)C2)C3)[n+]1C(P(=O)([O-])O)P(=O)(O)O (stereo not given)
2. N#CC(c1nc2ccccc2s1)c1nc(Cl)ncc1Br (stereo not given)

Found:
1: > 100 µM (inactive); 2: 37.3 µM (inactive)

Give me GI50 for each of these compounds, listed below.
1. Cc1c(Cl)c(S(N)(=O)=O)cc2c1N=CNS2(=O)=O
2. CC(C)(C)OC(=O)NC(Cc1ccccc1)C(=O)NC(Cc1ccccc1)C(=O)NCC(=O)OCc1ccccc1 (stereo not drawn) (Boc-Phe-Phe-Gly-OBn; configuration not given here)
3. Cc1ccc(NC(c2ccccc2)c2ccc3cccnc3c2O)cc1 (stereo not given)

Found:
1: > 100 µM (inactive); 2: 19.7 µM (inactive); 3: 5.22 µM (inactive)

----------
System: XF498
Test: NCI tumour cell line growth inhibition, 48 h
The source made the active and inactive calls. Cut-off read from the data, not from the text of the source: active = GI50 up to about 1.1 µM and inactive = higher.
Endpoint name: GI50

Reference set (2 entries):
Cc1cc(C)c(-c2noc(-c3ccc(Cl)cc3)c2C2=NCCCN2)c(C)c1 = 12.2 µM (inactive)
CC1(C)O[C@@H](CCl)C[C@H](C#N)O1 = > 100 µM (inactive)

Give me GI50 for each of these molecules, listed below.
1. CN(CC(=O)O)S(=O)(=O)c1ccc2ccccc2c1
2. CN(CCO)/N=N/c1[nH]cnc1C(N)=O

Found:
["> 100 µM (inactive)", "82.2 µM (inactive)"]

Give me GI50 for each of these molecules, listed below.
1. C#Cc1cccc(N2C(=O)CCC2=O)c1
2. CC1=C(C(=O)CC(=O)C(=O)Nc2ccc(Cl)cc2C)Sc2ccccc2N1
3. [O-][S+]1c2ccccc2N=C(c2ccc3ccccc3c2)CC1C1=CC=CCC1 (centres undefined)
4. CC(C)(C)c1cc(C(O)(C(F)(F)F)C(F)(F)F)c2c(c1)C(C(F)(F)F)(C(F)(F)F)OC(C)(C(C)(C)C)N2 (centres undefined)
5. O=C1c2ccccc2C(=O)N1CC#CCO
6. CCN(CC)CCC(=O)NC1c2ccccc2Oc2c(C)cccc21 (centres undefined)
7. O=C(O)CCNS(=O)(=O)c1ccc(NC(=O)c2ccccc2)cc1
8. COc1ccc(CNc2cnc3ccc(N)cc3n2)cc1

Found:
15 µM (inactive)
> 100 µM (inactive)
17.1 µM (inactive)
1.63 µM (inactive)
> 100 µM (inactive)
> 100 µM (inactive)
> 100 µM (inactive)
> 100 µM (inactive)

Give me GI50 for each of these molecules, listed below.
1. Cn1cnc([N+](=O)[O-])c1Sc1n[nH]c(-c2ccc(Cl)cc2)n1
2. CCCCCCCCC(=O)NCCCNCCCNC(=O)CCCCCCCC

Found:
1. 10.1 µM (inactive)
2. 3.18 µM (inactive)

----------
Tested on: ACHN
Assay: NCI tumour cell line growth inhibition, 48 h
The source made the active and inactive calls. Rule as the data show it: active = GI50 up to about 1.1 µM and inactive = higher.
Please provide measured GI50 for the entries that follow.

Reference set (3 entries):
CC12CC(=O)C3C(C(=O)C1)C32C (stereo not drawn) = > 100 µM (inactive)
CN(C)CC1COC2Cc3ccccc3C1O2 (stereo not drawn) = > 100 µM (inactive)
O=C1C=CC(=O)C(CNc2ccc(C(=O)OC34CC5CC(CC(C5)C3)C4)cc2)=C1 = 6.28 µM (inactive)

Give me GI50 for each of these compounds, listed below.
1. CCN(CC)CCC(=O)NC1c2ccccc2Oc2c(C)cccc21 (stereo not drawn)
2. Cc1cccc(C(C)C)c1NC(=O)C(=O)C(C(=O)c1ccccc1F)C1OC(=O)c2ccccc21 (stereo not drawn)
3. C[N+](C)(C)CCOP(=O)([O-])OCCNC(=O)c1ccc2ccccc2c1
4. CCN(CC)C(=S)SC1CCOP(=O)(N(CCCl)CCCl)N1C (stereo not drawn)
5. Cc1nc(Cl)c2sc(=S)n(-c3ccc(F)cc3)c2n1
6. O=C(Sc1c(-c2ccccc2)c(=O)n(-c2ccccc2)c(=S)n1-c1ccccc1)c1cccs1
7. C=C(C)CC(C)(c1cc2ccccc2n1C)N1CCOCC1 (stereo not drawn)

Found:
> 100 µM (inactive)
36.4 µM (inactive)
> 100 µM (inactive)
38.9 µM (inactive)
13.9 µM (inactive)
81.8 µM (inactive)
62.2 µM (inactive)

Give me GI50 for each of these compounds, listed below.
1. Cc1cc(O)c2c(=O)c3c(O)cc(O)c4c5c(O)cc(O)c6c(=O)c7c(O)cc(C)c8c1c2c(c34)c(c78)c65
2. COc1cc2c(cc1OCCCN1C(=O)c3cccc4cccc(c34)C1=O)N=C[C@@H]1CCCN1C2=O
3. CCN(CC)c1ccc(/C=C/C2=NN(c3cccc(S(=O)(=O)O)c3)C3(C2)C(Cl)C(=O)N3c2nc3ccccc3s2)cc1 (stereo not drawn)

Found:
> 100 µM (inactive)
25.7 µM (inactive)
10.9 µM (inactive)

Entry source: ChEMBL document CHEMBL1201862
